assay-target: recombinant PRL-2 (Homo sapiens)
Construct: 6xHis (N, cleaved yes); made in house; host or cells: E. coli One Shot BL21 Star
Sequence (Q12974 1-167): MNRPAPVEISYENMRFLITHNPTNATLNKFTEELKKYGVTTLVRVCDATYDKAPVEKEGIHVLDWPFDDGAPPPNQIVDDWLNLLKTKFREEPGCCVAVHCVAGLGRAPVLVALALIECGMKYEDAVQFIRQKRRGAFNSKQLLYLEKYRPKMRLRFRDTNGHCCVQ
protocol-description: In vitro phosphatase assay (DiFMUP hydrolysis), PRL-2
Type: biochemical
particulars: FDA-approved drug screen; compared to DMSO
% Phosphatase Activity (compared to DMSO) PRL-2 strictly under 90% means y; at 90% or over means n.

Exam item: % Phosphatase Activity (compared to DMSO) PRL-2 strictly < 90% for this molecule? `C=CC(=O)Nc1cccc(Oc2nc(Nc3ccc(N4CCN(C)CC4)cc3)nc3ccsc23)c1`
Marked response: y

----------
Kindly state % Phosphatase Activity (compared to DMSO) PRL-3 for each of the entries shown.
assay-target: recombinant PRL-3 (Homo sapiens, UniProt O75365)
Construct: 6xHis (N, cleaved yes); made in house; host or cells: E. coli One Shot BL21 Star
Sequence (O75365 whole entry): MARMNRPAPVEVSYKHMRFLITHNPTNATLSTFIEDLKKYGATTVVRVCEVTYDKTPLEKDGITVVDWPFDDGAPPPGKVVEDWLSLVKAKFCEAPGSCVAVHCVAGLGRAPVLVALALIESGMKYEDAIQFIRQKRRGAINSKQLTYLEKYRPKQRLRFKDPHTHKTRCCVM
protocol-description: In vitro phosphatase assay (DiFMUP hydrolysis), PRL-3
Type: biochemical
particulars: FDA-approved drug screen; compared to DMSO
Where a name gives a salt, the structure may show the parent alone.
Give bare numbers, in %.

Please review the entries below; each comes with its answer.
>  <compound>
CN(C)CCOC(c1ccc(Cl)cc1)c1ccccn1.O=C(O)/C=C\C(=O)O (stereo not shown) [ArbinoxaMine Maleate]

>  <assay-target>
recombinant PRL-3 (Homo sapiens, UniProt O75365)

>  <reading>
91

$$$$
>  <compound>
Cc1c(-c2ccnn2C)cc(C(=O)NCc2ccc(S(C)(=O)=O)cn2)c(=O)n1-c1cccc(C(F)(F)F)c1

>  <assay-target>
recombinant PRL-3 (Homo sapiens, UniProt O75365)

>  <reading>
121

$$$$
>  <compound>
CC(C)(C)c1cc(NC(=O)Nc2ccc(-c3cn4c(n3)sc3cc(OCCN5CCOCC5)ccc34)cc2)no1

>  <assay-target>
recombinant PRL-3 (Homo sapiens, UniProt O75365)

>  <reading>
97

$$$$
>  <compound>
CCOC(=O)c1ncn2c1CN(C)C(=O)c1cc(F)ccc1-2

>  <assay-target>
recombinant PRL-3 (Homo sapiens, UniProt O75365)

>  <reading>
69

$$$$
>  <compound>
CN(C)C(=O)C(CCN1CCC(O)(c2ccc(Cl)cc2)CC1)(c1ccccc1)c1ccccc1 [Loperamide HCl]

>  <assay-target>
recombinant PRL-3 (Homo sapiens, UniProt O75365)

>  <reading>
81

$$$$
>  <compound>
Cc1ccc(NC(=O)c2ccc(CN3CC[C@H](N(C)C)C3)c(C(F)(F)F)c2)cc1Nc1nccc(-c2cncnc2)n1

>  <assay-target>
recombinant PRL-3 (Homo sapiens, UniProt O75365)

>  <reading>
76

$$$$
>  <compound>
CC(C)NCC(O)c1ccc(O)c(O)c1.Cl (stereo not shown) [Isoprenaline HCl]

>  <assay-target>
recombinant PRL-3 (Homo sapiens, UniProt O75365)

>  <reading>
94

$$$$
>  <compound>
CC(=O)Oc1cc2c(s1)CCN(C(C(=O)C1CC1)c1ccccc1F)C2 (stereo not shown) [Prasugrel]

>  <assay-target>
recombinant PRL-3 (Homo sapiens, UniProt O75365)

>  <reading>
79

$$$$

Respectfully, I request % Phosphatase Activity (compared to DMSO) PRL-3 for each entry included below.
1. CCCCCCCCCCCCCCCC(=O)O[C@@H]1[C@@H](O)[C@@H](O)[C@@H]([C@H](NC(=O)[C@@H]2C[C@@H](CCC)CN2C)[C@H](C)Cl)O[C@@H]1SC.Cl [Clindamycin palmitate HCl]
2. COc1ccc2c(c1OC)C(=O)O[C@@H]2[C@H]1c2c(cc3c(c2OC)OCO3)CCN1C [Noscapine HCl]
3. O=c1[nH]c(=O)n([C@H]2C[C@H](O)[C@@H](CO)O2)cc1F
4. CCc1c2c(nc3ccc(OC(=O)N4CCC(N5CCCCC5)CC4)cc13)-c1cc3c(c(=O)n1C2)COC(=O)[C@]3(O)CC
5. O=C(O)CSc1nnc(Br)n1-c1ccc(C2CC2)c2ccccc12
6. O=C1CC2(CCCC2)CC(=O)N1CCCCN1CCN(c2ncccn2)CC1 [Buspirone HCl]
7. CCn1cc(C(=O)O)c(=O)c2cnc(N3CCCC3)nc21

Marked response:
106
103
70
3887
85
75
96

Exam item: Which measured % Phosphatase Activity (compared to DMSO) PRL-3 value corresponds to CC(=O)NC1CCSC1=O (stereo not shown) ?
Marked response: 93

----------
assay-target: recombinant PRL-1 (Homo sapiens)
Construct: 6xHis (N, cleaved yes); made in house; host or cells: E. coli One Shot BL21 Star
Sequence (Q93096 1-173): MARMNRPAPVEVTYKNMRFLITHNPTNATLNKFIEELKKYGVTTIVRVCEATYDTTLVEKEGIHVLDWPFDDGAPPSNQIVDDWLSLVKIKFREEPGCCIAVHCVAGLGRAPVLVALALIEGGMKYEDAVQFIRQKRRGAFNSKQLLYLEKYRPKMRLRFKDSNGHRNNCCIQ
protocol-description: In vitro phosphatase assay (DiFMUP hydrolysis), PRL-1
Assay type: biochemical
particulars: FDA-approved drug screen; compared to DMSO
% Phosphatase Activity (compared to DMSO) PRL-1 strictly under 90% means true; at 90% or over means false.

>  <compound>
O=C(N/N=C/c1ccc([N+](=O)[O-])o1)c1ccc(O)cc1 [Nifuroxazide]

>  <assay-target>
recombinant PRL-1 (Homo sapiens)

>  <qualitative-label>
true

$$$$
>  <compound>
Cc1nc2c([nH]1)-c1ccccc1N(C(=O)c1ccc(NC(=O)c3ccccc3-c3ccccc3)cc1)CC2.Cl [Conivaptan HCl]

>  <assay-target>
recombinant PRL-1 (Homo sapiens)

>  <qualitative-label>
false

$$$$
>  <compound>
CCOc1ccc2ccccc2c1C(=O)N[C@@H]1C(=O)N2[C@@H]1SC(C)(C)[C@@H]2C(=O)O [Nafcillin Sodium]

>  <assay-target>
recombinant PRL-1 (Homo sapiens)

>  <qualitative-label>
false

$$$$

Exam item: % Phosphatase Activity (compared to DMSO) PRL-1 strictly < 90% for this compound? CCCCCN(C)CCC(O)(P(=O)([O-])O)P(=O)(O)O.[Na+] [Ibandronate sodium]
Marked response: false

Exam item: % Phosphatase Activity (compared to DMSO) PRL-1 strictly < 90% for this compound? CC1Cc2ccccc2N1NC(=O)c1ccc(Cl)c(S(N)(=O)=O)c1 (stereo not shown) [Indapamide]
Marked response: false

----------
Kindly state % Phosphatase Activity (compared to DMSO) PRL-2 for each of the entries shown.
assay-target: recombinant PRL-2 (Homo sapiens)
Construct: 6xHis (N, cleaved yes); made in house; host or cells: E. coli One Shot BL21 Star
protocol-description: In vitro phosphatase assay (DiFMUP hydrolysis), PRL-2;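 also: PRL-2 activity read as DiFMUP hydrolysis after 20 min at room temperature with drug, enzyme first pre-reduced at 4 °C for 20 min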
Assay type: biochemical
particulars: FDA-approved drug screen; compared to DMSO

Please review the entries below; each comes with its answer.
>  <compound>
COc1cc(/C=C/C(=O)CC(=O)/C=C/c2ccc(O)c(OC)c2)ccc1O [Curcumin]

>  <assay-target>
recombinant PRL-2 (Homo sapiens)

>  <reading>
77%

$$$$
>  <compound>
COC(=O)Nc1nc2ccc(C(=O)c3ccccc3)cc2[nH]1 [Mebendazole]

>  <assay-target>
recombinant PRL-2 (Homo sapiens)

>  <reading>
83%

$$$$
>  <compound>
C=C(c1ccc(C(=O)O)cc1)c1cc2c(cc1C)C(C)(C)CCC2(C)C [Bexarotene]

>  <assay-target>
recombinant PRL-2 (Homo sapiens)

>  <reading>
89%

$$$$
>  <compound>
Cl.N=C(N)N [Guanidine HCl]

>  <assay-target>
recombinant PRL-2 (Homo sapiens)

>  <reading>
108%

$$$$
>  <compound>
CC(O)C(=O)O.CN1CCN(c2ccc3nc(-c4c(N)c5c(F)cccc5[nH]c4=O)[nH]c3c2)CC1 [Dovitinib (TKI258) Lactate]

>  <assay-target>
recombinant PRL-2 (Homo sapiens)

>  <reading>
70%

$$$$

Respectfully, I request % Phosphatase Activity (compared to DMSO) PRL-2 for each entry included below.
1. O=C1NC(=O)C(c2ccccc2)(c2ccccc2)N1 [Phenytoin sodium]
2. CCn1cc(C(=O)O)c(=O)c2cc(F)c(N3CCNCC3)nc21 [Enoxacin]
3. COC(=O)N/N=C/c1c[n+]([O-])c2ccccc2[n+]1[O-] [Carbadox]

Marked response:
100%
95%
103%

Respectfully, I request % Phosphatase Activity (compared to DMSO) PRL-2 for each entry included below.
1. CC(C(=O)[O-])c1cccc(Oc2ccccc2)c1.CC(C(=O)[O-])c1cccc(Oc2ccccc2)c1.[Ca+2] (centres unmarked) [Fenoprofen Calcium]
2. CCC1=C(C)CN(C(=O)NCCc2ccc(S(=O)(=O)NC(=O)N[C@H]3CC[C@H](C)CC3)cc2)C1=O [Glimepiride]
3. Cc1cn(-c2cc(NC(=O)c3ccc(C)c(Nc4nccc(-c5cccnc5)n4)c3)cc(C(F)(F)F)c2)cn1 [Nilotinib (AMN-107)]
4. O=C1CCc2ccc(OCCCCN3CCN(c4cccc(Cl)c4Cl)CC3)cc2N1 [Aripiprazole]
5. NC(=O)N/N=C/c1ccc([N+](=O)[O-])o1 [Nitrofural]
6. CN1CCN(c2ccc3nc(-c4c(N)c5c(F)cccc5[nH]c4=O)[nH]c3c2)CC1 [Dovitinib (TKI-258, CHIR-258)]
7. Nc1cc(C(Cl)=C(Cl)Cl)c(S(N)(=O)=O)cc1S(N)(=O)=O [Clorsulon]

Marked response:
80%
88%
92%
111%
72%
96%
115%

Respectfully, I request % Phosphatase Activity (compared to DMSO) PRL-2 for each entry included below.
1. CCOC(=O)C1=C(C)NC(C)=C(C(=O)OC)C1c1cccc(Cl)c1Cl (centres unmarked) [Felodipine]
2. CCN1CCN(Cc2ccc(Nc3ncc(F)c(-c4cc(F)c5nc(C)n(C(C)C)c5c4)n3)nc2)CC1 [LY2835219]

Marked response:
227%
79%
